# assayed-system: Epidermal growth factor receptor (Homo sapiens, UniProt P00533)
# Sequence (P00533 whole entry): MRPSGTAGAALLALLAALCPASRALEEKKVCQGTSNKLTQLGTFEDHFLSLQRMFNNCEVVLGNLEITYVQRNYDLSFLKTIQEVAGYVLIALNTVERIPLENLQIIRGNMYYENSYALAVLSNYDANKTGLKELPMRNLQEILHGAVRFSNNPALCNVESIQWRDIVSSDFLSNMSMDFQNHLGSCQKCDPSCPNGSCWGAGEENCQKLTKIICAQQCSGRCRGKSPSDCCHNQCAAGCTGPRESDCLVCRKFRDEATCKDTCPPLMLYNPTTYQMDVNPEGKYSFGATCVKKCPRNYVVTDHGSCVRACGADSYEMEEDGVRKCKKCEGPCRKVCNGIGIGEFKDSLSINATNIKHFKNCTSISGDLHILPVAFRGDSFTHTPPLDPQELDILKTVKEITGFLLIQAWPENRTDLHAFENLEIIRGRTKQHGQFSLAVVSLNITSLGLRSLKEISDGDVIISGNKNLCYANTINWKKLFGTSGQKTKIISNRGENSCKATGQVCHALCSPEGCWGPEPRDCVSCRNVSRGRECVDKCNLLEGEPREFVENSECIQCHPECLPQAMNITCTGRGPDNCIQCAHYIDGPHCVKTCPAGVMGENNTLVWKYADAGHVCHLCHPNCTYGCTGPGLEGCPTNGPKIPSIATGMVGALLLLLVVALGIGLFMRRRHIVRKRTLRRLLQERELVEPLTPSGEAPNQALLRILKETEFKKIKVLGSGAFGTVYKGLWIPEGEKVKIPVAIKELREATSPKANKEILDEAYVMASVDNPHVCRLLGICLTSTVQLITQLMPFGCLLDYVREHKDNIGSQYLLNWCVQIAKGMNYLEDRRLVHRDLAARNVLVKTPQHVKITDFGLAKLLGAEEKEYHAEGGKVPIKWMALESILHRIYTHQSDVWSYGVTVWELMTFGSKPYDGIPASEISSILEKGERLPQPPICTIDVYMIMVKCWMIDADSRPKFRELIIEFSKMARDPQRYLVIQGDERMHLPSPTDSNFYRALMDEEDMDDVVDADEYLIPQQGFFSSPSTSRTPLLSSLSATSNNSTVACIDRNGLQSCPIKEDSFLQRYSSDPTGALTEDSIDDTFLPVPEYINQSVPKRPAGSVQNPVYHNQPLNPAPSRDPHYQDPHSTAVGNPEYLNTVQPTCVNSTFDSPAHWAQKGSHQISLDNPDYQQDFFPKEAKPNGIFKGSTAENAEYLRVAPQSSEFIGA

query-smiles | assayed-system | IC50
COc1cc2c(Oc3ccc(NC(=O)c4c(Cl)c5ccccc5n(-c5ccc(F)cc5)c4=O)cc3F)ccnc2cc1OCCCN1CCN(C)CC1 | Epidermal growth factor receptor (Homo sapiens, UniProt P00533) | > 100 µM

----------
# Test system: A549
# measurement-protocol: Cytotoxicity against human A549 cells assessed as cell growth inhibition after 72 hrs by MTT assay
# Type: functional, cell-based
# stated-conditions: A549, 72 h
pIC50: −log10 of the molar value.

query-smiles | pIC50
COc1cc2c(Oc3ccc(NC(=O)c4c(Cl)c5ccccc5n(-c5ccccc5)c4=O)cc3F)ccnc2cc1OCCCN1CCOCC1 | 6.03
COc1cc2c(Oc3ccc(NC(=O)c4c(Cl)c5ccccc5n(-c5ccc(C)cc5)c4=O)cc3F)ccnc2cc1OCCCN1CCN(C)CC1 | 6.51
COc1cc2c(Oc3ccc(NC(=O)c4c(Cl)c5ccccc5n(-c5ccccc5)c4=O)cc3F)ccnc2cc1OCCCN1CCCC1 | 6.09
COc1cc2c(Oc3ccc(NC(=O)c4c(Cl)c5ccccc5n(-c5ccccc5)c4=O)cc3F)ccnc2cc1OCCCN1CCC(C)CC1 | 6.41
COc1cc2c(Oc3ccc(NC(=O)c4c(Cl)c5ccccc5n(-c5ccc(F)cc5)c4=O)cc3F)ccnc2cc1OCCCN1CCOCC1 | 6.96
COc1cc2c(Oc3ccc(NC(=O)c4c(Cl)c5ccccc5n(-c5ccc(C)cc5)c4=O)cc3F)ccnc2cc1OCCCN1CCOCC1 | 6.08
COc1cc2c(Oc3ccc(NC(=O)c4c(Cl)c5ccccc5n(-c5ccc(C)cc5)c4=O)cc3F)ccnc2cc1OCCCN1CCCC1 | 6.64

----------
# assayed-system: UniProt P09619
# Sequence (P09619 whole entry): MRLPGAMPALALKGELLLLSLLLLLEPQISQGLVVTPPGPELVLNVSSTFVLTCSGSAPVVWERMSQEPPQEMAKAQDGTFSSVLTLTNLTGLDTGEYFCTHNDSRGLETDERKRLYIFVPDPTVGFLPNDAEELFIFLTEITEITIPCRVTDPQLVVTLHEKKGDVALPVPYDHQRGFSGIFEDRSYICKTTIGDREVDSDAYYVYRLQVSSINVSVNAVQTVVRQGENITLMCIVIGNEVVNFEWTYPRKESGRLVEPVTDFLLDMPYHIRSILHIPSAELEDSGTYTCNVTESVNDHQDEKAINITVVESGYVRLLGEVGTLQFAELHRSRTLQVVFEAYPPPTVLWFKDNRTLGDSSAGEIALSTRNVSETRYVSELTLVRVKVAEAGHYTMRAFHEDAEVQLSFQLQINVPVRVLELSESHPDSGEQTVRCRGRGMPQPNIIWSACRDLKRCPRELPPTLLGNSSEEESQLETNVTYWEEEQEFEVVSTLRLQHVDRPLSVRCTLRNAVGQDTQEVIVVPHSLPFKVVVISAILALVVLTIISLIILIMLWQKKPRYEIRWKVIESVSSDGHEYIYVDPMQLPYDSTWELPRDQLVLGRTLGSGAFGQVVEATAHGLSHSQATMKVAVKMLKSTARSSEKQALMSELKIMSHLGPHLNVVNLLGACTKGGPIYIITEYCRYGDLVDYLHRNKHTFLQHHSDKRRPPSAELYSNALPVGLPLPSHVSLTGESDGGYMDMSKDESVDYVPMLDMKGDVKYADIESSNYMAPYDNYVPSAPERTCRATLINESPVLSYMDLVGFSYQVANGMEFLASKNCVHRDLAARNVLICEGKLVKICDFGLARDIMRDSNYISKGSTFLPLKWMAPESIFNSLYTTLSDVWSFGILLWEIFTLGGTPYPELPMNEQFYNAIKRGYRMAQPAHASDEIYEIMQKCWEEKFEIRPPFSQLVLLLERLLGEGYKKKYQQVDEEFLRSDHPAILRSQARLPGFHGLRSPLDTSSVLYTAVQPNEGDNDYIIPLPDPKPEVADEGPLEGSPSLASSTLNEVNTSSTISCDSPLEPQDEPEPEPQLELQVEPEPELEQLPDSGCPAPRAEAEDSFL

query-smiles | measure-unit | IC50
COc1cc2c(Oc3ccc(NC(=O)c4c(Cl)c5ccccc5n(-c5ccc(F)cc5)c4=O)cc3F)ccnc2cc1OCCCN1CCN(C)CC1 | nM | 526

----------
# Tested on: HT-29
# measurement-protocol: cells
# stated-conditions: Homo sapiens, HT-29, 72 h
# Description: Cytotoxicity against human HT-29 cells assessed as cell growth inhibition after 72 hrs by MTT assay
// values below are reported IC50

query-smiles | assayed-system | measure-unit | IC50
COc1cc2c(Oc3ccc(NC(=O)c4c(Cl)c5ccccc5n(-c5cc(C)cc(C)c5)c4=O)cc3F)ccnc2cc1OCCCN1CCCC1 | HT-29 | nM | 300
COc1cc2c(Oc3ccc(NC(=O)c4c(Cl)c5ccccc5n(-c5ccc(C)cc5)c4=O)cc3F)ccnc2cc1OCCCN1CCOCC1 | HT-29 | nM | 390
COc1cc2c(Oc3ccc(NC(=O)c4c(Cl)c5ccccc5n(-c5ccc(C)cc5)c4=O)cc3F)ccnc2cc1OCCCN1CCCC1 | HT-29 | nM | 480
COc1cc2c(Oc3ccc(NC(=O)c4c(Cl)c5ccccc5n(-c5ccc(F)cc5)c4=O)cc3F)ccnc2cc1OCCCN1CCCC1 | HT-29 | nM | 150
